Reported values of solubility kinetic for individual entries
CONDITION LABEL: buffer; pH 7.4; 200.0 µM
QUANTITY MEASURED: solubility kinetic (µg/mL)

• N#Cc1nc(-c2cccc3ccccc23)oc1NCC1CCCO1 (centres undefined) = 3.3
• O=C(NC12CC3CC(CC(C3)C1)C2)c1ccc(Br)o1 = 9.7
• O=C(CSc1ccc(C(F)(F)F)cn1)Nc1ccccc1 = 16.8
• CCN(CCO)Cc1cc(=O)oc2cc3c(cc12)CCC3 = 42.1
• COc1ccccc1OCCn1cc(C=O)c2ccccc21 = 7.8
• CCOc1ccccc1NC(=O)Nc1ccc2c(c1)OCO2 = 2.8
• CC(=O)c1c(C)[nH]c(C(=O)COC(=O)c2ccc(Cl)nc2)c1C = 3.9
• O=[N+]([O-])c1c(NCCO)cc(N2CCCCC2)c2nonc12 = 38.6
• COc1cc(NC(=O)c2ccc(N3CCCC3=O)cc2)cc(OC)c1 = 10.4
• O=C(NCC1COc2ccccc2O1)C1(c2ccccc2)CCCC1 (centres undefined) = 17.8
• O=C(O)CN1C(=O)c2ccc(C(=O)c3ccccc3)cc2C1=O = 45.8
• O=C(NC1CCN(Cc2cccc([N+](=O)[O-])c2)CC1)c1ccccc1 = 32.4
